This collection of values is drawn from patent US9139574B2.

Tested on: NCI-H460
PROTOCOL SUMMARY: MTT assay of anti-tumor activity, NCI-H460
Format: cell-based
CONDITION LABEL: Homo sapiens, NCI-H460, 72 h, NCI-H460 cells
MEASURED PARAMETER: IC50

COc1cc(OC)cc(-c2nc[nH]c2-c2ccc(OC(F)(F)F)c(N)c2)c1 = > 300 nM
COc1cc(OC)cc(-c2ncoc2-c2ccc(OC)c(O)c2N)c1 = > 300 nM
COc1cc(OC)cc(-c2ncn(CCO)c2-c2ccc(OC)c(F)c2)c1 = > 300 nM
COc1cc(-c2ncn(-c3cc(OC)c(OC)c(OC)c3)c2-c2ccc(N(C)C)cc2)cc(OC)c1OC = > 300 nM
